Where do these numbers come from? They come from PubChem BioAssay (NCI).

Tested on: K-562 leukemia
Assay Procedure: NCI tumour cell line growth inhibition, 48 h
Where a SMILES comes first, the peptide text is derived from it. [ ]: non-standard residue; d: D form. Ac5c = NC1(C(=O)O)CCCC1
Value Kind: TGI

- Compound: "Nc1c(C(=O)c2ccc(Cl)cc2)sc(Nc2ccccc2)c1-c1nc2ccccc2s1"
  Value Kind: "TGI"
  Result: "> 100 µM"
- Compound: "O=S(=O)(NC1=NCCN1C(=S)SN1CCn2c1nsc2=S)c1ccc(Br)cc1"
  Value Kind: "TGI"
  Result: "83.2 µM"
- Compound: "c1ccc2c(c1)CCC/C2=N\\OCC1CO1 (stereo unspecified)"
  Value Kind: "TGI"
  Result: "> 100 µM"
- Compound: "CCC(Sc1cc(Cl)c(C)cc1S(=O)(=O)Nc1nc(N)nc(N(C)C)n1)C(=O)O (stereo unspecified)"
  Value Kind: "TGI"
  Result: "> 10 µM"
- Compound: "NC1(C(=O)NC2(C(=O)O)CCCC2)CCCC1 (H-[Ac5c]-[Ac5c]-OH)"
  Value Kind: "TGI"
  Result: "> 100 µM"
- Compound: "CCOC(=O)C(SCCO)C(C(=O)OCC)n1cnc2c(N)ncnc21 (stereo unspecified)"
  Value Kind: "TGI"
  Result: "14.6 µM"
- Compound: "O=C1OC(CC(=O)c2ccc(Cl)c(Cl)c2)C(Cl)=C1Cl (stereo unspecified)"
  Value Kind: "TGI"
  Result: "> 100 µM"
- Compound: "COc1cc(/C=C/C(=O)CC(=O)/C=C/c2cc(OC)c(OC)c(OC)c2)cc(OC)c1OC"
  Value Kind: "TGI"
  Result: "> 100 µM"
- Compound: "O=C(/C=C/c1ccc([N+](=O)[O-])o1)N1CCN(Cc2ccccc2)CC1"
  Value Kind: "TGI"
  Result: "26.2 µM"
- Compound: "O=C1c2ccccc2C(O)(C(=O)O)C1(O)CC=C(Cl)Cl (stereo unspecified)"
  Value Kind: "TGI"
  Result: "> 125 µM"
- Compound: "Cc1c(NC(=O)C(C)(C)Br)c(=O)oc2c(C)c3occc(=O)c3cc12"
  Value Kind: "TGI"
  Result: "> 100 µM"
- Compound: "CN(C)C=Nc1cccc2nsnc12"
  Value Kind: "TGI"
  Result: "> 100 µM"
- Compound: "CC(=O)O[C@@H]1CC[C@@]2(C)C(CC[C@H]3[C@@H]4CC[C@H]([C@H](C)CCc5nc6ccc(C)cc6[nH]5)[C@@]4(C)CC[C@@H]32)C1 (stereo partly specified)"
  Value Kind: "TGI"
  Result: "> 100 µM"
- Compound: "COc1ccc2c(c1)/C(=C\\c1c(C)nc3n1CCS3)C(=O)N2"
  Value Kind: "TGI"
  Result: "> 100 µM"
- Compound: "Cc1cc(C)c([O-])c(CN(C)CCN(C)Cc2cc(C)cc(C)c2[O-])c1.O=C([O-])c1cccc(C(=O)[O-])n1.[Ti+4]"
  Value Kind: "TGI"
  Result: "> 100 µM"
- Compound: "COc1cc(S(=O)(=O)Nc2nc(-c3ccc(N4C(=O)C(CC(=O)O)SC4c4ccccc4O)cc3)cs2)ccc1Cl (stereo unspecified)"
  Value Kind: "TGI"
  Result: "> 100 µM"
- Compound: "CCNC(=O)CCN(C(=O)O)S(=O)(=O)c1ccc(NC(=O)c2ccccc2)cc1"
  Value Kind: "TGI"
  Result: "> 100 µM"
- Compound: "COC(=O)CCc1cc(OC)c2c(c1)C(C(=O)OC)C(c1ccc(OC)c(OC)c1)O2 (stereo unspecified)"
  Value Kind: "TGI"
  Result: "> 100 µM"
- Compound: "C=CC1(C(=O)O)CCC(C(C)(C)C)CC1 (stereo unspecified)"
  Value Kind: "TGI"
  Result: "> 100 µM"
- Compound: "CSc1nc(C)c2c(n1)SCC2"
  Value Kind: "TGI"
  Result: "> 10 µM"
- Compound: "CC1C[C@@]2(c3ccccc3)C(=O)CCC[C@H]2N1 (stereo partly specified)"
  Value Kind: "TGI"
  Result: "> 100 µM"
